Record form. Attribute: viability, T/C. Fill in for each entry.
System: 997537-175-T-J1-PDC complex spheroid viability
assay: Anticancer human tumor 997537-175-T-J1-PDC patient-derived colon adenocarcinoma cell line growth inhibition [GQUAD]
cond: second compound 3.16 µM; first compound 0.0316 µM; stronger effect = lower value
One number for each entry, in %.

Look over these answered cases.
COc1ccc([C@@H](O)c2cc(-c3ncnc4cc(N5CCOCC5)ccc34)c(F)cc2Cl)nn1 + CN(C)c1ccc(Nc2c3ccc(NC(=O)CCN4CCCC4)cc3nc3cc(NC(=O)CCN4CCCC4)ccc23)cc1 :: 84
COc1cc(C2c3cc4c(cc3C(OC3OC5COC(C)OC5C(O)C3O)C3COC(=O)C23)OCO4)cc(OC)c1O (stereo not given) + Cc1[nH]c2ccc(F)cc2c1-c1nc2c3cccnc3c3ncccc3c2[nH]1 :: 88.5

# batch: return viability, T/C for each of the 6 compounds below
1. C=CC(=O)N1CCN(c2nc(=O)n(-c3c(C)ccnc3C(C)C)c3nc(-c4c(O)cccc4F)c(F)cc23)C(C)C1 (stereo not given) + Cc1[nH]c2ccc(F)cc2c1-c1nc2c3cccnc3c3ncccc3c2[nH]1
2. CC1COCCN1c1cc(C2(O)CC3CCC(C2)O3)c2cnn(-c3ccn[nH]3)c2n1 (stereo not given) + CN(C)c1ccc(Nc2c3ccc(NC(=O)CCN4CCCC4)cc3nc3cc(NC(=O)CCN4CCCC4)ccc23)cc1
3. CC1COCCN1c1cc(C2(S(C)(=N)=O)CC2)nc(-c2ccnc3[nH]ccc23)n1 (stereo not given) + CN(C)c1ccc(Nc2c3ccc(NC(=O)CCN4CCCC4)cc3nc3cc(NC(=O)CCN4CCCC4)ccc23)cc1
4. CC1COCCN1c1cc(C2(S(C)(=N)=O)CC2)nc(-c2ccnc3[nH]ccc23)n1 (stereo not given) + Cc1[nH]c2ccc(F)cc2c1-c1nc2c3cccnc3c3ncccc3c2[nH]1
5. CC(C)(O)C1CCC(Nc2ccc3ncc(-c4cccc(C(F)(F)F)c4)n3n2)CC1 (stereo not given) + Cc1cnc(CNC(=O)c2c(=O)c3ccc(N4CCCN(C)CC4)nc3n3c2sc2ccccc23)cn1
6. COc1ccc([C@@H](O)c2cc(-c3ncnc4cc(N5CCOCC5)ccc34)c(F)cc2Cl)nn1 + Cc1cnc(CNC(=O)c2c(=O)c3ccc(N4CCCN(C)CC4)nc3n3c2sc2ccccc23)cn1

Result string:
80.7
55.8
70.2
59.7
92.5
81.7

Batch of 7 compounds: report viability, T/C for each.
1. COc1cccc2c1C(=O)c1c(O)c3c(c(O)c1C2=O)CC(O)(C(=O)CO)CC3OC1CC(N)C(O)C(C)O1 (stereo not given) + Cc1cnc(CNC(=O)c2c(=O)c3ccc(N4CCCN(C)CC4)nc3n3c2sc2ccccc23)cn1
2. C=CCn1c(=O)c2cnc(Nc3ccc(N4CCN(C)CC4)cc3)nc2n1-c1cccc(C(C)(C)O)n1 + Cc1cnc(CNC(=O)c2c(=O)c3ccc(N4CCCN(C)CC4)nc3n3c2sc2ccccc23)cn1
3. Cc1cccc(N(C)C(=O)C2C(O)CCN2c2nc(C)cc(C(F)(F)F)c2C#N)c1 (stereo not given) + Cc1cnc(CNC(=O)c2c(=O)c3ccc(N4CCCN(C)CC4)nc3n3c2sc2ccccc23)cn1
4. O=C(c1cc(Cc2n[nH]c(=O)c3ccccc23)ccc1F)N1CCN(C(=O)C2CC2)CC1 + CN(C)c1ccc(Nc2c3ccc(NC(=O)CCN4CCCC4)cc3nc3cc(NC(=O)CCN4CCCC4)ccc23)cc1
5. COc1cccc2c1C(=O)c1c(O)c3c(c(O)c1C2=O)CC(O)(C(=O)CO)CC3OC1CC(N)C(O)C(C)O1 (stereo not given) + Cc1[nH]c2ccc(F)cc2c1-c1nc2c3cccnc3c3ncccc3c2[nH]1
6. C#Cc1c(F)ccc2cc(O)cc(-c3ncc4c(N5CC6CCC(C5)N6)nc(OCC56CCCN5CC(F)C6)nc4c3F)c12 (stereo not given) + CN(C)c1ccc(Nc2c3ccc(NC(=O)CCN4CCCC4)cc3nc3cc(NC(=O)CCN4CCCC4)ccc23)cc1
7. COc1ncnc(C2CC2)c1-c1ncc2cnn(Cc3ccc(-c4nc(C(F)(F)F)cn4C(C)C)cc3)c2n1 + Cc1cnc(CNC(=O)c2c(=O)c3ccc(N4CCCN(C)CC4)nc3n3c2sc2ccccc23)cn1

Result string:
1. 69.7
2. 63.1
3. 77.3
4. 82.8
5. 74
6. 69.6
7. 56

I would be grateful if you could provide viability, T/C for each of the following entries.
1. CCCS(=O)(=O)Nc1ccc(F)c(C(=O)c2c[nH]c3ncc(-c4ccc(Cl)cc4)cc23)c1F + Cc1cnc(CNC(=O)c2c(=O)c3ccc(N4CCCN(C)CC4)nc3n3c2sc2ccccc23)cn1
2. CC1COCCN1c1cc(-c2ccnn2C)c2ccnc(-c3ccn[nH]3)c2n1 (stereo not given) + CN(C)c1ccc(Nc2c3ccc(NC(=O)CCN4CCCC4)cc3nc3cc(NC(=O)CCN4CCCC4)ccc23)cc1
3. CCCS(=O)(=O)Nc1ccc(F)c(C(=O)c2c[nH]c3ncc(-c4ccc(Cl)cc4)cc23)c1F + CN(C)c1ccc(Nc2c3ccc(NC(=O)CCN4CCCC4)cc3nc3cc(NC(=O)CCN4CCCC4)ccc23)cc1
4. COc1ncnc(C2CC2)c1-c1ncc2cnn(Cc3ccc(-c4nc(C(F)(F)F)cn4C(C)C)cc3)c2n1 + Cc1[nH]c2ccc(F)cc2c1-c1nc2c3cccnc3c3ncccc3c2[nH]1
5. CC[C@@]1(O)C(=O)OCc2c1cc1n(c2=O)Cc2cc3c(CN(C)C)c(O)ccc3nc2-1 + Cc1[nH]c2ccc(F)cc2c1-c1nc2c3cccnc3c3ncccc3c2[nH]1

Result string:
1: 82.7; 2: 60.6; 3: 70.3; 4: 83.1; 5: 51.2

---

Tested on: 997537-175-T-J1-PDC complex spheroid viability
assay: Anticancer human tumor 997537-175-T-J1-PDC cell line growth inhibition [GQUAD];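 also: spheroids exposed to the agents for 7 days; 100% = DMSO vehicle control viability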
cond: second compound 0.1 µM; first compound 3.16 µM; stronger effect = lower value
Record form. Attribute: viability, T/C. Fill in for each entry.
Give bare numbers, in %.

CC1COCCN1c1cc(C2(O)CC3CCC(C2)O3)c2cnn(-c3ccn[nH]3)c2n1 (stereo not given) + Cc1cnc(CNC(=O)c2c(=O)c3ccc(N4CCCN(C)CC4)nc3n3c2sc2ccccc23)cn1 :: 41.2
COc1cc(C2c3cc4c(cc3C(OC3OC5COC(C)OC5C(O)C3O)C3COC(=O)C23)OCO4)cc(OC)c1O (stereo not given) + Cc1cnc(CNC(=O)c2c(=O)c3ccc(N4CCCN(C)CC4)nc3n3c2sc2ccccc23)cn1 :: 63.2
C#Cc1c(F)ccc2cc(O)cc(-c3ncc4c(N5CC6CCC(C5)N6)nc(OCC56CCCN5CC(F)C6)nc4c3F)c12 (stereo not given) + CN(C)c1ccc(Nc2c3ccc(NC(=O)CCN4CCCC4)cc3nc3cc(NC(=O)CCN4CCCC4)ccc23)cc1 :: 110
O=C(c1cc(Cc2n[nH]c(=O)c3ccccc23)ccc1F)N1CCN(C(=O)C2CC2)CC1 + Cc1cnc(CNC(=O)c2c(=O)c3ccc(N4CCCN(C)CC4)nc3n3c2sc2ccccc23)cn1 :: 85.8
CC(=O)O[C@H]1C(=O)[C@@]2(C)[C@H]([C@H](OC(=O)c3ccccc3)[C@]3(O)C[C@H](OC(=O)[C@H](O)[C@@H](NC(=O)c4ccccc4)c4ccccc4)C(C)=C1C3(C)C)[C@]1(OC(C)=O)CO[C@@H]1C[C@@H]2O + Cc1[nH]c2ccc(F)cc2c1-c1nc2c3cccnc3c3ncccc3c2[nH]1 :: 65.6
CC(C)(O)C1CCC(Nc2ccc3ncc(-c4cccc(C(F)(F)F)c4)n3n2)CC1 (stereo not given) + Cc1cnc(CNC(=O)c2c(=O)c3ccc(N4CCCN(C)CC4)nc3n3c2sc2ccccc23)cn1 :: 36.7
CC1COCCN1c1cc(C2(O)CC3CCC(C2)O3)c2cnn(-c3ccn[nH]3)c2n1 (stereo not given) + Cc1[nH]c2ccc(F)cc2c1-c1nc2c3cccnc3c3ncccc3c2[nH]1 :: 45.4
CC1COCCN1c1cc(C2(S(C)(=N)=O)CC2)nc(-c2ccnc3[nH]ccc23)n1 (stereo not given) + Cc1cnc(CNC(=O)c2c(=O)c3ccc(N4CCCN(C)CC4)nc3n3c2sc2ccccc23)cn1 :: 72.3
Nc1ccn(C2OC(CO)C(O)C2(F)F)c(=O)n1 (stereo not given) + Cc1[nH]c2ccc(F)cc2c1-c1nc2c3cccnc3c3ncccc3c2[nH]1 :: 87.4

Query molecule follows.
Query string: For the molecule shown here, C=CCn1c(=O)c2cnc(Nc3ccc(N4CCN(C)CC4)cc3)nc2n1-c1cccc(C(C)(C)O)n1 + Cc1cnc(CNC(=O)c2c(=O)c3ccc(N4CCCN(C)CC4)nc3n3c2sc2ccccc23)cn1 , give the reported viability, T/C.
Result string: 48.6

---

Test system: 997537-175-T-J1-PDC complex spheroid viability
assay: Anticancer human tumor 997537-175-T-J1-PDC cell line growth inhibition [GQUAD];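 also: spheroids exposed to the agents for 7 days; 100% = DMSO vehicle control viability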
cond: second compound 1 µM; first compound 0.00999 µM; stronger effect = lower value
experimentalEndpoint: viability, T/C (%)
One number for each entry, in %.

Some compounds with recorded viability, T/C:
CCc1c2c(nc3ccc(O)cc13)-c1cc3c(c(=O)n1C2)COC(=O)[C@]3(O)CC + Cc1[nH]c2ccc(F)cc2c1-c1nc2c3cccnc3c3ncccc3c2[nH]1 :: 44.4
CC[C@@]1(O)C(=O)OCc2c1cc1n(c2=O)Cc2cc3c(CN(C)C)c(O)ccc3nc2-1 + Cc1[nH]c2ccc(F)cc2c1-c1nc2c3cccnc3c3ncccc3c2[nH]1 :: 85.8
Cc1[nH]c2ccccc2c1CCNCc1ccc(/C=C/C(=O)NO)cc1 + Cc1cnc(CNC(=O)c2c(=O)c3ccc(N4CCCN(C)CC4)nc3n3c2sc2ccccc23)cn1 :: 101

Kindly review the next compound as well.
Query string: What value of viability, T/C has been reported for the following compound? Cc1[nH]c2ccccc2c1CCNCc1ccc(/C=C/C(=O)NO)cc1 + CN(C)c1ccc(Nc2c3ccc(NC(=O)CCN4CCCC4)cc3nc3cc(NC(=O)CCN4CCCC4)ccc23)cc1
Result string: 87.5

Ref: PubChem BioAssay AID2060487
